The values you see were collected from patent US20020115661A1.

TEST SYSTEM: UniProt P56497
Sequence (P56497 27-442): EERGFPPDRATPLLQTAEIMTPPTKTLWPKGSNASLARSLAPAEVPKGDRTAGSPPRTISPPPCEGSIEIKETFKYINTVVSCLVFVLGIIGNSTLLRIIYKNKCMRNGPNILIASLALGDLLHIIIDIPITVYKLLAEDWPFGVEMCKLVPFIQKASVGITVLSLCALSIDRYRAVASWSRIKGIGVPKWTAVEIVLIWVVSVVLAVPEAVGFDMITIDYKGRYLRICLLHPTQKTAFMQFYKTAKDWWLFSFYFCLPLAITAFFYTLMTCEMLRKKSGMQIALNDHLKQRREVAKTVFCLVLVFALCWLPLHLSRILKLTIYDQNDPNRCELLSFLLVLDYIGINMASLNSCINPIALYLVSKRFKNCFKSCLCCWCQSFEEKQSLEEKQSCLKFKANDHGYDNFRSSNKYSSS
READOUT NAME: IC50 (µM)
Form entry: value (µM) — number only.

molecule CCc1cc(C2=C(C(=O)[O-])N(c3ccccc3C(F)(F)F)S(=O)(=O)c3ccccc32)cc2c1OCO2.[K+] [CI-1034, monopotassium salt] , IC50 observed: 0.329

* * *

ASSAY PROCEDURE: Dissociation constant by potentiometric titration in water
Type: physicochemical
RUN CONDITIONS: carboxylic acid group, read-out: apparent pKa
READOUT NAME: pKa

Query CCc1cc(C2=C(C(=O)[O-])N(c3ccccc3C(F)(F)F)S(=O)(=O)c3ccccc32)cc2c1OCO2.[K+] [CI-1034, monopotassium salt] yields pKa of 3.9

* * *

ASSAY PROCEDURE: PO bioavailability in monkeys
RUN CONDITIONS: monkey, in vivo
READOUT NAME: bioavailability

bioavailability measured on CCc1cc(C2=C(C(=O)[O-])N(c3ccccc3C(F)(F)F)S(=O)(=O)c3ccccc32)cc2c1OCO2.[K+] [CI-1034] = ~10%

* * *

Could you please report measured pIC50 for the items listed next?
TEST SYSTEM: human ETA receptors (Homo sapiens, UniProt P25101)
Sequence (P25101 21-427): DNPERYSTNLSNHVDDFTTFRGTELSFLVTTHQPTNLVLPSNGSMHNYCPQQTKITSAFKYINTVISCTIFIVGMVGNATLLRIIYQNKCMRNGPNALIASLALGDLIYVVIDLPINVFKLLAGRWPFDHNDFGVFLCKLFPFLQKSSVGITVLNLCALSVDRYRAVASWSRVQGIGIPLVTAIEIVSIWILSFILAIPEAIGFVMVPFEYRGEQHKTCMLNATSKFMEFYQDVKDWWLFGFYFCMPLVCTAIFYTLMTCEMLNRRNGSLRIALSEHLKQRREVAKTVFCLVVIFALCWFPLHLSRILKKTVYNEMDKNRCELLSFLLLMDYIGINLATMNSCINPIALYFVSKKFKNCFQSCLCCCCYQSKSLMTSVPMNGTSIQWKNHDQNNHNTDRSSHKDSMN
ASSAY PROCEDURE: [125I]ET-1 binding to recombinant human ETA receptors (Ltk- cell membranes)
RUN CONDITIONS: Table 1 comparison with known endothelin antagonists; read-out: Receptor Inhibition, Human ETA
Reminder that pIC50 means the negative base-10 logarithm of the concentration expressed in mol/L.

Memo: CCCOc1ccc2c(c1)[C@@H](c1ccc(OC)cc1OCCO)[C@H](C(=O)O)[C@H]2c1ccc2c(c1)OCO2 , reported pIC50: 10.00

Lab note: measured pIC50 of COc1cc(OC)nc(O[C@H](C(=O)O)C(OC)(c2ccccc2)c2ccccc2)n1 was 8.85

* * *

ASSAY PROCEDURE: Pharmacokinetics in dogs
Assay type: in vivo
RUN CONDITIONS: dog, in vivo, po; dogs
READOUT NAME: bioavailability

The compound CCc1cc(C2=C(C(=O)[O-])N(c3ccccc3C(F)(F)F)S(=O)(=O)c3ccccc32)cc2c1OCO2.[K+] showed bioavailability equal to ~100%

* * *

ASSAY PROCEDURE: Plasma CI-1034 concentrations in anesthetized dogs
Type: in vivo, dog
RUN CONDITIONS: plasma, intravenous; dog, 30 mg/kg, 5 minutes postdose
READOUT NAME: concentration at 5 min (µg/mL)
Quick note: give the figure in µg/mL, leave out the unit.

concentration at 5 min reading for CCc1cc(C2=C(C(=O)[O-])N(c3ccccc3C(F)(F)F)S(=O)(=O)c3ccccc32)cc2c1OCO2.[K+] [CI-1034, monopotassium salt] : 301
